Source: patent US20210301005A1

What HEKBlue TGFβ blocking IC50 was measured for each of the following?
- subjectOfTest: T1, human TGFβ3, mature dimeric form (human, UniProt P10600 301-412)
- T1 sequence: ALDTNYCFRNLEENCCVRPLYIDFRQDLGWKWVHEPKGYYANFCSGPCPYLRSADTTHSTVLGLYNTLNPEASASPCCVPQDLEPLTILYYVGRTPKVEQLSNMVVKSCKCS
- procedureText: cell-based or functional assay
Respond with a number, then the unit of measure.

Prompt line: Return reported HEKBlue TGFβ blocking IC50; argument: h4A11.v7.9 (antibody, human IgG1, kappa, N297G, V domains shown) VH: EQQLQESGPGLVKPSETLSLTCTVTGFSLSSYTVNWIRQPAGKGLEWIGYISYGGSAYYASWANGRFTISKDSSKNQVSLKLSSVTAADTAVYFCARHMQVGGAPTGSMAAFDPWGPGTLVTVSS VL: EAVLTQSPGTLSLSPGERATLSCQSSQSVYNNNYLSWFQQKPGQPPRLLIYGASTLTSGVPDRFSGSGSGTDFTLTISRLEPEDFAVYYCAGGYSGSSDKYAFGGGTKVEIKR
Response line: 0.02 nM

Prompt line: Now the binder h4A11.v7.6 (antibody, V domains shown) VH: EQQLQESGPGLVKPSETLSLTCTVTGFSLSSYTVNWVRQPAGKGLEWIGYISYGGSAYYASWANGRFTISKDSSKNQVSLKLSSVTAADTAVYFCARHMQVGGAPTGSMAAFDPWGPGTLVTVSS VL: EAVLTQSPGTLSLSPGERATLSCQSSQSVYNNNYLSWFQQKPGQAPRLLIYGASTLTSGVPDRFSGSGSGTDFTLTISRLEPEDFAVYYCAGGYSGSSDKYAFGGGTKVEIK
Response line: 0.01 nM

Prompt line: Follow-up entry: h4A11.v7.5 (antibody, V domains shown) VH: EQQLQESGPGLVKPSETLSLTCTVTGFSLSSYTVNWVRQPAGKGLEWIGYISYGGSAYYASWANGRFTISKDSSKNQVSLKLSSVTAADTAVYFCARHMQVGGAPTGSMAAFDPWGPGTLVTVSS VL: EAVLTQSPGTLSLSPGERATLSCQSSQSVYNNNYLSWYQQKPGQPPRLLIYGASTLTSGVPDRFSGSGSGTDFTLTISRLEPEDFAVYYCAGGYSGSSDKYAFGGGTKVEIK
Response line: 0.04 nM

Prompt line: Repeat for the following binder: h4A11.v7.14 (antibody, human IgG1, kappa, N297G, V domains shown) VH: EQQLQESGPGLVKPSETLSLTCTVTGFSLSSYTVNWVRQPAGKGLEWIGYISYGGSAYYASWANGRFTISKDSSKNQVSLKLSSVTAADTAVYYCARHMQVGGAPTGSMAAFDPWGPGTLVTVSS VL: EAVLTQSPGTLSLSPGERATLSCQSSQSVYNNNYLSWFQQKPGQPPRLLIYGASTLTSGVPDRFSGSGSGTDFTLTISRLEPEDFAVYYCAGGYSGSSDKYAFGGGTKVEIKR
Response line: 0.04 nM

Prompt line: Again, but for h4A11.v7.10 (antibody, human IgG1, kappa, N297G, V domains shown) VH: EQQLQESGPGLVKPSETLSLTCTVTGFSLSSYTVNWVRQPAGKGLEWIGYISYGGSAYYASWANGRVTISKDSSKNQVSLKLSSVTAADTAVYFCARHMQVGGAPTGSMAAFDPWGPGTLVTVSS VL: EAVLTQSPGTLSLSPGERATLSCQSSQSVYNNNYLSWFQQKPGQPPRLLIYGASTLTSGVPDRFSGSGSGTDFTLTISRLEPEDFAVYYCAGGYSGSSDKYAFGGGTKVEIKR
Response line: 0.02 nM

Prompt line: Same question for h4A11.v7.13 (antibody, human IgG1, kappa, N297G, V domains shown) VH: EQQLQESGPGLVKPSETLSLTCTVTGFSLSSYTVNWVRQPAGKGLEWIGYISYGGSAYYASWANGRFTISKDSSKNQFSLKLSSVTAADTAVYFCARHMQVGGAPTGSMAAFDPWGPGTLVTVSS VL: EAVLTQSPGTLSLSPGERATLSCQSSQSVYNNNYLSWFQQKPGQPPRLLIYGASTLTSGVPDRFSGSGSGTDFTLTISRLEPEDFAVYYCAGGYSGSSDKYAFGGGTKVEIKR please.
Response line: 0.05 nM
